The measured values listed here are drawn from ChEMBL document CHEMBL1201862.

system: HCC 2998; experiment: NCI tumour cell line growth inhibition, 48 h
The source made the active and inactive calls. Cut-off read from the data, not from the text of the source: active = GI50 up to about 1.1 µM and inactive = higher.
Outcome field: choose from yes for active, no for inactive

Worked examples, 2 compounds total:
> print(dat)
                                   compound  tested.system  class.assignment
1       COc1c(Cl)c(Cl)c(OC)c2c1C(=O)C=CC2=O       HCC 2998                no
2  O=C1c2ccccc2C2(c3ccc(Cl)cc3)N[C@@H]3CCCC[C@@H]3N12 (stereo partly drawn)       HCC 2998                no

Recorded test call requested for COC(=O)/C(=N/NC(N)=O)C(C(=O)C(=O)Nc1ccc(C)cc1)c1nc2ccc(C(=O)c3ccccc3)cc2nc1O (stereo not drawn)
no

Recorded test call requested for "CC(C)/C(Cl)=N\OC(=O)Nc1ccc(S(N)(=O)=O)cc1"
no

Recorded test call requested for "CC(C)(C)OC(=O)c1ccc(NCc2cc(O)ccc2O)cc1"
no

Recorded test call requested for "COc1ccc(C=C2C(=O)NC(=S)NC2=O)c2ccccc12"
no

Recorded test call requested for "C=CCN1C(=O)/C(=C/c2ccccc2)NC1=S"
no

Recorded test call requested for "Nc1nc2c(c(=O)[nH]1)N=C(COP(=O)(O)OP(=O)(O)O)CN2"
no
